Provide the reported GI50 of each item.
Test system: OVCAR-8
Experiment: NCI tumour cell line growth inhibition, 48 h
The source made the active and inactive calls. Cut-off read from the data, not from the text of the source: active = GI50 up to about 1.1 µM and inactive = higher.

Ask | Query: GI50; subject: O=C(Nc1ccccc1)c1cc2cc(CCl)ccc2oc1=O
Reply | > 100 µM (inactive)

Ask | Query: GI50; subject: Cc1nc2ccc(F)cc2c2c1CCS2
Reply | 69.3 µM (inactive)

Ask | Query: GI50; subject: CN(C)CCCN1C(=S)N(CCCN(C)C)c2c3cc(O)ccc3nc3c([N+](=O)[O-])ccc1c23
Reply | 1.87 µM (inactive)

Ask | Query: GI50; subject: CC(C)(C)C(=O)Oc1ccc(/C=C/C(=O)c2ccc(OC(=O)C(C)(C)C)cc2)cc1
Reply | 40.4 µM (inactive)

Ask | Query: GI50; subject: O=C(Cc1nc2ccccc2s1)C(=O)Nc1ccccc1C(F)(F)F
Reply | > 100 µM (inactive)

Ask | Query: GI50; subject: COc1cc(C2OC[C@@H]3C(=O)OC[C@H]23)cc(O)c1OC (stereo partly specified)
Reply | > 100 µM (inactive)

Ask | Query: GI50; subject: C#CCn1c(=O)c2ccccc2n(CC#C)c1=O
Reply | > 10 µM (inactive)

Ask | Query: GI50; subject: C1CCN(c2nc(=[N+]3CCCCC3)ss2)CC1
Reply | > 100 µM (inactive)

Ask | Query: GI50; subject: CCOC(=O)C1NCCc2c1[nH]c1ccccc21 (stereo unspecified)
Reply | > 10 µM (inactive)

Ask | Query: GI50; subject: CCC1(CC)C(=O)NN(C(=O)c2ccc(Cl)cc2)C1=O
Reply | > 100 µM (inactive)

Ask | Query: GI50; subject: N=C1N(c2ccccc2)C(=O)C23CCCC2C13N1CCOCC1 (stereo unspecified)
Reply | > 100 µM (inactive)
